Here's a batch of molecules along with measured IC50 for DNA-PK kinase (Homo sapiens, UniProt P78527).
property: IC50 (nM)

I = c1cnc2cc(N3CCOCC3)nc(OC3CCNCC3)c2c1 [Example 89]
II = c1cnc2cc(N3CCOCC3)nc(N3CCC(CNc4ccncn4)CC3)c2c1 [Example 120]
III = NC(=O)[C@H]1CC[C@@H](COc2nc(N3CCOCC3)cc3ncccc23)CC1 [Example 6]
IV = c1cncc(C2CCCCN2c2nc(N3CCOCC3)cc3ncccc23)c1 (centres unmarked) [Example 85]
V = c1cnc(N2CCC3(C2)CN(c2nc(N4CCOCC4)cc4ncccc24)C3)nc1 [Example 35]
Query: Reorder the records above by IC50 so that values decrease. I'd appreciate it if you listed the labels in the requested order.
Response: IV, V, I, II, III
(IV: 2030 nM, V: 720 nM, I: 361 nM, II: 140 nM, III: 74 nM)

Data origin: patent US20230063457A1
